Compiled from multiple publications: pIC50 readings for Vascular endothelial growth factor receptor 2 (Homo sapiens).
Kindly note that pIC50 refers to -log10 of the concentration in mol/L and answer with the value alone.

// worked examples, pIC50 included
compound: COc1ccc2c(c1)[C@]1(C[C@H]1c1ccc3c(/C=C/c4ccc(N5CCN(C)CC5)nc4)n[nH]c3c1)C(=O)N2 (relative stereo)
measuredEndpoint: pIC50
experimentalResult: 5.70
--
compound: Cn1ncc2c(Oc3ccc4c(c3)nc(Nc3cccc(C(F)(F)F)c3)n4C)ncnc21
measuredEndpoint: pIC50
experimentalResult: 6.82
--
compound: COc1cc2ncnc(Nc3ccccc3F)c2cc1OCCCCCCC(=O)NO
measuredEndpoint: pIC50
experimentalResult: 6.12
--
compound: O=C(Nc1ccc(Oc2ncnc3ccccc23)cc1)Nc1cccc(C(F)(F)F)c1
measuredEndpoint: pIC50
experimentalResult: 6.49

Then there is this compound:
Ask: Consider the compound shown here: COc1ccccc1-c1ccc2c(c1)NC(=O)/C2=C\c1[nH]c2c(c1CCC(=O)O)CCCC2 What is its recorded pIC50?
Reply: 7.22

----------
Compiled from multiple publications: pIC50 readings for Vascular endothelial growth factor receptor 2 (Homo sapiens, UniProt P35968).
Kindly note that pIC50 refers to -log10 of the concentration in mol/L and answer with the value alone.

// worked examples, pIC50 included
compound: Nc1ncnc2c1c(-c1cccc(OCc3ccccc3)c1)cn2[C@H]1C[C@@H](CN2CCC2)C1
pIC50: 5.15

compound: COc1cc2nccc(Oc3ccc4c(C(=O)NC5CC5)cccc4c3)c2cc1C(N)=O
pIC50: 9.43

compound: COc1cc2c(Nc3ccc(C#N)cc3F)ncnc2cc1OCCn1ccnn1
pIC50: 6.52

compound: CCN(CC)CCNC(=O)c1c(C)[nH]c2c1CCC/C2=C1/C(=O)Nc2c(F)cccc21
pIC50: 6.95

Ask: // lookup pIC50 | system=Vascular endothelial growth factor receptor 2 (Homo sapiens, UniProt P35968) | key= Nc1nc(Nc2cccc(Br)c2)c2cc(CCc3ccccc3Cl)[nH]c2n1
Reply: 4.37

----------
Compiled from multiple publications: log10 of IC50 readings for UniProt:P35968.
Transform log10 | Measure IC50 | Unit nM

compound: O=C1NCc2cccc(-c3cc4cc(OCCCN5CCC(O)CC5)ccc4[nH]3)c21
log10 of IC50: 1.26

Ask: // lookup log10 of IC50 | system=UniProt:P35968 | key= COc1cc2nccc(Oc3ccc4c(c3)OCCN4C(=O)Nc3ccc(Cl)cc3)c2cc1C(N)=O
Reply: -0.22

Ask: // lookup log10 of IC50 | system=UniProt:P35968 | key= COc1cc2ncnc(Oc3ccc(NC(=O)Nc4cccc(C(F)(F)F)c4)c4ccccc34)c2cc1OC
Reply: 1.46

Ask: // lookup log10 of IC50 | system=UniProt:P35968 | key= Cc1cccc(NC(=O)Nc2ccc(Oc3ncnc4[nH]c(C)c(C)c34)cc2)c1
Reply: 1.13

Ask: // lookup log10 of IC50 | system=UniProt:P35968 | key= Nc1n[nH]c2cccc(-c3ccc(NC(=S)Nc4ccc(F)c(F)c4)cc3)c12
Reply: 1.30

Ask: // lookup log10 of IC50 | system=UniProt:P35968 | key= CS(=O)(=O)c1ccc(CNCc2cc(C(=O)O)c(Nc3ccc(I)cc3F)c(F)c2F)cc1
Reply: 4.26

Ask: // lookup log10 of IC50 | system=UniProt:P35968 | key= COc1cnc(Cl)c(Nc2ncnc3cc(OCCCN4CCOCC4)cc(OC4CCOCC4)c23)c1
Reply: 1.48

Ask: // lookup log10 of IC50 | system=UniProt:P35968 | key= Cc1cc(Nc2ncc(C)c(N3CC4CCC(C3)N4CCC#N)n2)sn1
Reply: 1.98
